Target: GlcNAc(b1-3)Gal(b1-4)GlcNAc(b1-2)Man(a1-3)[GlcNAc(b1-3)Gal(b1-4)GlcNAc(b1-2)Man(a1-6)]Man(b1-4)GlcNAc(b1-4)GlcNAc
Assay: glycan array binding signal (z-score within array); higher = stronger binding
Details: glycan notation: IUPAC condensed, linker removed
Only a selection was taken, and the strongest signals are over-represented in it overall.
This section presents binders with their documented glycan array binding signal (z-score) values.
Number only, please.

-- ask Provide measured glycan array binding signal (z-score) value, entry: ArathEULS3 TAP (Arabidopsis thaliana) (protein) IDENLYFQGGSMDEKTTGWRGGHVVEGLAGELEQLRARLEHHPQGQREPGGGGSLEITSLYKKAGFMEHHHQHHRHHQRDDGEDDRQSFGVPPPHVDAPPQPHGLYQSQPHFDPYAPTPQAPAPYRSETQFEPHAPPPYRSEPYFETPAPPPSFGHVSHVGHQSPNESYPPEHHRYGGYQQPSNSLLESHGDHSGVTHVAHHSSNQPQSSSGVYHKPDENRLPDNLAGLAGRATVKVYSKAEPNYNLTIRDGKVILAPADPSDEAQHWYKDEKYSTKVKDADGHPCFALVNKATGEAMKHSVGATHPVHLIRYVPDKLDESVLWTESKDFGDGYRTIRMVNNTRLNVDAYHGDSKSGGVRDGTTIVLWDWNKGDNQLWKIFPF
-- reply -0.107

-- ask Provide measured glycan array binding signal (z-score) value, entry: Ovorubin (Pomacea canaliculata), J7I2T6 (protein) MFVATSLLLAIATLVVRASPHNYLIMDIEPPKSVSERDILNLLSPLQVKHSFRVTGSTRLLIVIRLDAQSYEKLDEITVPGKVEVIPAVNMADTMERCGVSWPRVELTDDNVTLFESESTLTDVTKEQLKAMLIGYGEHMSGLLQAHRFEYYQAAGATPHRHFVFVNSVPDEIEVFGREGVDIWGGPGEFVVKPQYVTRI
-- reply -0.39

-- ask Provide measured glycan array binding signal (z-score) value, entry: UEA-I (Ulex europaeus), P22972 (protein) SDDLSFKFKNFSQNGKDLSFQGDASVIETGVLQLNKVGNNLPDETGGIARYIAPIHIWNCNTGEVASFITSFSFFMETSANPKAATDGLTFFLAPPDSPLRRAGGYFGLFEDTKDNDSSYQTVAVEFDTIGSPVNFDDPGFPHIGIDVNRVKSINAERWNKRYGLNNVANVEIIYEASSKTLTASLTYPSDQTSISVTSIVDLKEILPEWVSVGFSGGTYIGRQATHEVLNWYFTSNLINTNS
-- reply -0.128

-- ask Provide measured glycan array binding signal (z-score) value, entry: pilr alpha (protein) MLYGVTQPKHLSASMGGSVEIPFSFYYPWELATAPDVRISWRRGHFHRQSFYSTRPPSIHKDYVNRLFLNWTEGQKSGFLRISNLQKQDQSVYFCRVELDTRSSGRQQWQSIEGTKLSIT
-- reply 0.049

-- ask Provide measured glycan array binding signal (z-score) value, entry: DrGal9 (Danio rerio) (protein) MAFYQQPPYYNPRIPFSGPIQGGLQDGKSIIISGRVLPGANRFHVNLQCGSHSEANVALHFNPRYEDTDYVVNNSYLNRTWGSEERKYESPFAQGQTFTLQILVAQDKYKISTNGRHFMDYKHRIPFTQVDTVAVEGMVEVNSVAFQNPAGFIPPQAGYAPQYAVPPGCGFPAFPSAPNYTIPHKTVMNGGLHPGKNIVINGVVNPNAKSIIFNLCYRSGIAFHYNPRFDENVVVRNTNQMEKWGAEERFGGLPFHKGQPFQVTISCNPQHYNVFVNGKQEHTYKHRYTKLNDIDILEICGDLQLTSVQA
-- reply 1.73

These measurements were taken from the supplement of paper PMC8728848.
